Overview of reported GI50 across a group of compounds:
Test system: UACC-257
MEASUREMENT_PROTOCOL: NCI tumour cell line growth inhibition, 48 h
Activity calls are given as the source filed them. No stated cut-off is given here; in the data, active = GI50 up to about 1.1 µM and inactive = higher.

- COMPOUND: "CCOc1ccc(NC(=O)C(=O)C(/C(=N/N)C(=O)OC)c2nc3ccc([N+](=O)[O-])cc3nc2O)cc1 (stereo not given)"
  GI50: "> 100 µM (inactive)"
- COMPOUND: "Nc1ccccc1S(=O)(=O)N(CC(=O)O)c1ccccc1"
  GI50: "> 100 µM (inactive)"
- COMPOUND: "CC(=O)OCC1OC(n2c(-c3ccc(C)cc3)cc(-c3ccco3)c(C#N)c2=S)C(OC(C)=O)C(OC(C)=O)C1OC(C)=O (stereo not given)"
  GI50: "> 100 µM (inactive)"
- COMPOUND: "CC1=NN=C(N)N/C1=C\\C(Sc1ccc(Cl)cc1)c1ccc([N+](=O)[O-])cc1 (stereo not given)"
  GI50: "91.4 µM (inactive)"
- COMPOUND: "O=c1[nH]c2c(c3ccccc13)CCc1ccccc1-2"
  GI50: "> 100 µM (inactive)"
- COMPOUND: "COC(OC)C1OC(CO)C(n2cc(F)c(=O)[nH]c2=O)C1O (stereo not given)"
  GI50: "> 100 µM (inactive)"
- COMPOUND: "CC(C)(Cc1ccccc1)NC1=NCCO1"
  GI50: "> 100 µM (inactive)"
- COMPOUND: "C=CCCCCCCCCC(=O)ON(Cc1ccc(O)c(OC)c1)C(=O)C(F)(F)F"
  GI50: "> 100 µM (inactive)"
- COMPOUND: "CSc1nc(=O)cnn1C"
  GI50: "> 100 µM (inactive)"
- COMPOUND: "O=[N+]([O-])C(=C/c1ccccc1)/C(=C\\c1ccccc1)[N+](=O)[O-]"
  GI50: "17 µM (inactive)"
- COMPOUND: "Nc1ccc2c(c1)C1Oc3ccccc3CC1CO2 (stereo not given)"
  GI50: "> 100 µM (inactive)"
- COMPOUND: "Cc1ccc(S(N)(C(=O)Nc2cccc3ccccc23)[N+](=O)[O-])cc1 (stereo not given)"
  GI50: "> 100 µM (inactive)"
- COMPOUND: "c1ccc2cc3n[se]nc3cc2c1"
  GI50: "> 100 µM (inactive)"
- COMPOUND: "CC(=O)OCC12C(OC(C)=O)C(=O)C3C(OC(C)=O)C14OC3(C)COC(=O)c1cccnc1C(C)C(C)C(=O)OC(C(OC(C)=O)C2OC(C)=O)C4(C)O (stereo not given)"
  GI50: "> 100 µM (inactive)"
- COMPOUND: "Cn1cnc([N+](=O)[O-])c1Sc1nc2cccnc2s1"
  GI50: "13.3 µM (inactive)"
- COMPOUND: "O=[N+]([O-])c1ccc(C(Nc2ccccc2)P(c2ccccc2)c2ccccc2)cc1 (stereo not given)"
  GI50: "> 100 µM (inactive)"
- COMPOUND: "Cc1c(C(=O)Nc2ccc(Cl)cc2)nc(N)nc1-c1cccc(Cl)c1"
  GI50: "> 100 µM (inactive)"
- COMPOUND: "Cc1ccc(/N=N\\c2c(O)c(S(=O)(=O)O)cc3cc(S(=O)(=O)O)ccc23)c(C)c1"
  GI50: "> 100 µM (inactive)"
- COMPOUND: "C[N+]12CCCCC1C(CN1C(=O)Cc3c4ccccc4c(c4ccccc34)CC1=O)CCC2 (stereo not given)"
  GI50: "> 100 µM (inactive)"
- COMPOUND: "C=C1C(=O)[C@]23C[C@H]1C[C@@H](O)[C@H]2[C@]1(COC3=O)[C@@H](OC(C)=O)CC[C@@](C)(COC(C)=O)[C@H]1C=O [LOXOTHYRIN A]"
  GI50: "> 50 µM (inactive)"

----------
Test system: HOP-18
MEASUREMENT_PROTOCOL: NCI tumour cell line growth inhibition, 48 h
Activity calls are given as the source filed them. Cut-off read from the data, not from the text of the source: active = GI50 up to about 1.1 µM and inactive = higher.
Classes used: active, inactive

- MOLECULE: "O=c1c2cc(Br)cc(Br)c2[nH]c(=S)n1-c1ccccc1"
  CATEGORY_LABEL: "inactive"
- MOLECULE: "COc1cccc2c1[C@H]1OC(=O)NC1CCCCC2 (stereo partly drawn)"
  CATEGORY_LABEL: "inactive"
- MOLECULE: "CN(C)CCNC(=O)c1cccc2ccc(-c3ccc(-c4ccccc4)cc3)nc12"
  CATEGORY_LABEL: "inactive"
- MOLECULE: "CN/N=C(\\C)CC(=O)Nc1cccc(Cl)c1C"
  CATEGORY_LABEL: "inactive"
- MOLECULE: "CC[C@@]1(O)C[C@H](OC2CC(N(C)C)C(OC3CC(O)C(OC4CCC(=O)C(C)O4)C(C)O3)C(C)O2)c2c(cc3c(c2O)C(=O)c2c(O)cccc2C3=O)[C@H]1C(=O)OC (stereo partly drawn)"
  CATEGORY_LABEL: "active"
- MOLECULE: "[O-][n+]1c2cc(CN3CCOCC3)c(CN3CCOCC3)cc2[n+]([O-])c2c(O)cccc21"
  CATEGORY_LABEL: "inactive"
- MOLECULE: "CCOC(=O)CCn1cnc(N)n1"
  CATEGORY_LABEL: "inactive"
- MOLECULE: "COC[C@@H](/N=C/N1CCc2cc(OC)c(OC)cc2[C@@H]1C)C(C)(C)C"
  CATEGORY_LABEL: "inactive"

----------
System: UACC-62
MEASUREMENT_PROTOCOL: NCI tumour cell line growth inhibition, 48 h
Calls of active or inactive are those of the source. Rule as the data show it: active = GI50 up to about 1.1 µM and inactive = higher.
Overview of reported GI50 across a group of compounds:

- COMPOUND: "O=C(c1ccc(-c2ccccc2)cc1)N(Cc1cccnc1)C(=S)N(Cc1cccnc1)C(=O)c1ccc(-c2ccccc2)cc1"
  TGT: "UACC-62"
  GI50: "> 100 µM (inactive)"
- COMPOUND: "O=C(Nc1c(O)[nH]c(=S)[nH]c1=O)c1ccccc1"
  TGT: "UACC-62"
  GI50: "> 100 µM (inactive)"
- COMPOUND: "C=CCOc1ccc(C2C(C(=O)OC)C(=O)CC(O)(c3ccccc3)C2C(=O)OC)cc1OC (stereo not given)"
  TGT: "UACC-62"
  GI50: "27.4 µM (inactive)"
- COMPOUND: "Cc1ccccc1NC(=O)C(=O)c1c(O)c2ccc(O)cc2oc1=O"
  TGT: "UACC-62"
  GI50: "> 100 µM (inactive)"
- COMPOUND: "C[C@]12CCC3=NCCN3C1=CC[C@@H]1[C@@H]2CC[C@@]2(C)[C@H]1CC[C@]2(C)O"
  TGT: "UACC-62"
  GI50: "29.3 µM (inactive)"
- COMPOUND: "COc1ccc(Nc2nc3cc(C(F)(F)F)ccc3nc2C(=O)O)cc1OC"
  TGT: "UACC-62"
  GI50: "23.7 µM (inactive)"
- COMPOUND: "CN(C)CCNC(=O)c1cccc2c(Nc3ccc(S(=O)(=O)N=C(N)N)cc3)c3ccccc3nc12"
  TGT: "UACC-62"
  GI50: "10.3 µM (inactive)"
- COMPOUND: "CN(C)C1(C#N)CCC2(CC1)OCCO2"
  TGT: "UACC-62"
  GI50: "> 100 µM (inactive)"
- COMPOUND: "Nc1ccc2c(c1)C1Oc3ccccc3CC1CO2 (stereo not given)"
  TGT: "UACC-62"
  GI50: "> 100 µM (inactive)"
- COMPOUND: "COc1ccc2c(c1)CC1Cc3ccccc3CCN1C2 (stereo not given)"
  TGT: "UACC-62"
  GI50: "55.1 µM (inactive)"
- COMPOUND: "N#CC(C(=N/O)/C(=N/O)C(C#N)c1ccc(Cl)cc1)c1ccc(Cl)cc1 (stereo not given)"
  TGT: "UACC-62"
  GI50: "91.4 µM (inactive)"
- COMPOUND: "COc1nc2ccc(CNc3ccc(C(=O)NC(CCC(=O)O)C(=O)O)cc3)cc2nc1OC (stereo not given)"
  TGT: "UACC-62"
  GI50: "> 100 µM (inactive)"
- COMPOUND: "Clc1ccc(-c2c3nc(c(-c4ccc(Cl)cc4)c4ccc([nH]4)c(-c4ccc(Cl)cc4)c4nc(c(-c5ccc(Cl)cc5)c5ccc2[nH]5)C=C4)C=C3)cc1"
  TGT: "UACC-62"
  GI50: "> 100 µM (inactive)"
- COMPOUND: "CN(C)c1ccc(/C=N/c2ccc(-c3nc4ccccc4s3)cc2)cc1"
  TGT: "UACC-62"
  GI50: "8.59 µM (inactive)"
- COMPOUND: "CCc1cccc(C(C)CC)c1NC(=O)CC1C(=O)Nc2ccccc2[S+]1[O-] (stereo not given)"
  TGT: "UACC-62"
  GI50: "10 µM (inactive)"
- COMPOUND: "COc1c2c(cc3c1C(=O)Cc1ccc4c(c1CN(C)CC3)OCO4)OCO2"
  TGT: "UACC-62"
  GI50: "> 100 µM (inactive)"
- COMPOUND: "CC(C)OP(=O)(OC(C)C)/C(I)=N/Nc1ccc([N+](=O)[O-])cc1"
  TGT: "UACC-62"
  GI50: "> 100 µM (inactive)"
- COMPOUND: "COC1=C(OC)C(=O)C(Cc2c(Cl)nc3n2CCS3)=C(C)C1=O"
  TGT: "UACC-62"
  GI50: "12.1 µM (inactive)"
- COMPOUND: "O=c1[nH]c2c(c3ccccc13)CCc1ccccc1-2"
  TGT: "UACC-62"
  GI50: "> 10 µM (inactive)"
- COMPOUND: "O=S(=O)(O)c1ccc2c(/N=N/c3ccc(/N=N/c4ccccc4)cc3)c(O)c(S(=O)(=O)O)cc2c1"
  TGT: "UACC-62"
  GI50: "> 100 µM (inactive)"
